- STUDY_TARGET: human secreted PLA2 (Homo sapiens, UniProt P14555)
- Sequence (P14555 21-144): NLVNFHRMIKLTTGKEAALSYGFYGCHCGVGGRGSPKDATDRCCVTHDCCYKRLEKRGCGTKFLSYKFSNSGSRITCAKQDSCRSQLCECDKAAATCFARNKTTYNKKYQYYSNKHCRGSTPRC
- ASSAY_COMMENT: chromogenic assay of recombinant human secreted phospholipase A2 inhibition (Assay Example 1)
- TEST_SETTINGS: mean of 3-5 tests; 40° C., 30 minutes, pH 7.5, 405 nanometers; read-out: Inhibition of human secreted PLA2 IC50 ± mean deviation (3-5 tests)
pIC50: −log10 of the molar value.
PROPERTY_MEASURED: pIC50

Take a look at these entries with their results.
# MOLECULE, STUDY_TARGET, PROPERTY_MEASURED, RECORDED_VALUE
records = [
    ("Cc1c(CC(=O)NN)c2ccc(Br)cc2n1Cc1ccccc1 [Example 54]", "human secreted PLA2 (Homo sapiens, UniProt P14555)", "pIC50", 5.99),
    ("Cc1c(CC(=O)NN)c2cc(Cl)ccc2n1Cc1ccccc1 [Example 48]", "human secreted PLA2 (Homo sapiens, UniProt P14555)", "pIC50", 6.13),
    ("COc1ccc2c(c1)c(CC(=O)NN)c(SC)n2Cc1ccccc1 [Example 45]", "human secreted PLA2 (Homo sapiens, UniProt P14555)", "pIC50", 6.22),
    ("CCCc1c(CC(=O)NN)c2cc(OC)ccc2n1Cc1ccccc1 [Example 5]", "human secreted PLA2 (Homo sapiens, UniProt P14555)", "pIC50", 4.15),
    ("Cc1c(CC(=O)NN)c2cc(-c3ccccc3)ccc2n1Cc1cccc(OCc2ccccc2)c1 [Example 58]", "human secreted PLA2 (Homo sapiens, UniProt P14555)", "pIC50", 5.66),
    ("COc1ccc2c(c1)c(CC(=O)NN)c(C)n2C(C)c1ccccc1 (stereo not shown) [Example 36]", "human secreted PLA2 (Homo sapiens, UniProt P14555)", "pIC50", 5.27),
    ("COc1ccc2c(c1)c(CC(=O)NN)c(C)n2Cc1cccc([N+](=O)[O-])c1 [Example 34]", "human secreted PLA2 (Homo sapiens, UniProt P14555)", "pIC50", 4.82),
    ("COc1ccc2c(c1)c(CC(=O)NN)c(C)n2Cc1ccncc1 [Example 39]", "human secreted PLA2 (Homo sapiens, UniProt P14555)", "pIC50", 4.34),
    ("Cc1c(CC(=O)NN)c2cc(OCc3ccc4ccccc4n3)ccc2n1Cc1ccc(Cl)cc1 [Example 63]", "human secreted PLA2 (Homo sapiens, UniProt P14555)", "pIC50", 5.07),
    ("COc1cccc(Cn2c(C)c(CC(=O)NN)c3cc(OC)ccc32)c1 [Example 27]", "human secreted PLA2 (Homo sapiens, UniProt P14555)", "pIC50", 5.66),
]

(A) COc1ccc2c(c1)c(CC(=O)NN)c(C)n2Cc1cccc(-c2ccccc2)c1 [Example 25]
(B) CCc1c(CC(=O)NN)c2cc(OC)ccc2n1Cc1ccccc1-c1ccccc1 [Example 4]
(C) COc1ccc2c(c1)c(CC(=O)NN)c(C)n2CCCCc1ccccc1 [Example 42]
[in] I would appreciate it if you could sort these 3 molecules by pIC50, starting from the smallest number. Present the labels in the sequence the task asks for.
[out] C, B, A
(C: 4.78, B: 5.29, A: 6.03)

(I) Cc1ccc2c(c1)c(CC(=O)NN)c(C)n2Cc1ccccc1 [Example 59]
(II) NNC(=O)Cc1cn(Cc2ccccc2)c2ccc(OCc3ccccc3)cc12 [Example 9]
[in] Could you tell me which of I and II has the lower pIC50 reading? Give the label under which the chosen entry appears.
[out] II
(II: 5.64, I: 6.12)
